system: Aspergillus fumigatus; assay: In vitro antifungal activity, MIC (Method A); assay type: cell-based; details: Aspergillus fumigatus, 72 h, pH 7, Aspergillus fumigatus CF1003, 1×10^5 cells/ml, 3 days, 27° C.
Measurement Type: MIC (µg/mL)

CCCCC/C=C/C=C/[C@@H]1OC[C@H](C)[C@H](OC)[C@H]1OC(=O)CN.O=CO [Example 47] ... 25

I: CCCCCCCCO[C@@H]1CCC(C)(C)C[C@H]1CC(O)CN (relative stereo) [Example 84]
II: CO[C@@H]1[C@H](OC(=O)CN)[C@H](CCCC(C)CCCC(C)C)OC[C@@H]1C.O=C(O)C(F)(F)F (stereo partly shown) [Example 8]
III: CCC/C=C/C=C/C=C/[C@@H]1OC[C@H](C)[C@H](OC)[C@H]1OC(=O)CN.O=CO [Example 11]
Query: Please produce an ascending ranking of these compounds based on MIC. // format: requested-order list of labels
Reply: III, I, II

---

system: A. fumigatus; experiment: In vitro antifungal activity, IC80 (Method B); assay type: cell-based; settings: Aspergillus fumigatus, A. fumigatus CF1003; 1×10^4 cells/ml, 1-2 days, 27° C., 0.2% agar; read-out: Antifungal activity IC80
Measurement Type: IC80

Sample answers from the record:
CO[C@@H]1[C@@H](Cn2cncn2)[C@H](CCc2ccc(C(F)(F)F)cc2)CCC1(C)C [Example 77] ... > 200 µg/mL
CO[C@@H]1[C@@H](Cn2cncn2)[C@H](CCc2ccc3ccccc3c2)CCC1(C)C [Example 75] ... > 200 µg/mL

Kindly review the next compound as well.
Query: Form field: IC80 recorded for CCc1ccc(OC[C@@H]2CCC(C)(C)[C@H](OC)[C@H]2Cn2cncn2)cc1 [Example 83] with A. fumigatus (enter value)
Reply: > 200 µg/mL
